Origin of values: PubChem BioAssay

assay: RPMI8226 myeloma cell viability, profiling panel, resazurin fluorescence, basal, 24 h, PK04 Diversity Set (AID 1180); details: higher = more signal;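 note: RPMI8826 multiple myeloma cell line at 5000 cells per well; test concentration not given here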
Each entry below carries its recorded z-score.
Give the value as a plain number.

Lab book: z-score of O=C(O)C1=CC[C@H]2C(=O)N(c3ccccc3)C(=O)[C@@H]12 noted as -1.24

Briefly, z-score measured for CS(=O)(=O)CCOC(=O)C1=CC(CCCO)=CC(C2CC2)N(Cc2sc3ccccc3c2Cl)C=C1C(=O)OCCS(C)(=O)=O (centres undefined) : -0.541

z-score recorded for this molecule, COc1ccc(C(=O)Nc2ccc(CN3C(=O)[C@@]4(O[C@@H](CC(=O)N(CCO)Cc5ccccc5)[C@H]([Si](C)(C)c5ccc(OC)cc5)[C@H]4C)c4ccccc43)cc2)cc1 , is -1.29

Lab book: z-score of CCOC(=O)C1=CC[C@@H](c2ccccc2)N(S(=O)(=O)c2ccc(C)cc2)[C@@H]1C#N noted as -1.57

Notebook: CCOC(=O)C[C@H]1[C@H](OC(=O)c2ccc(-c3ccccc3)cc2)[C@@H](NC(=O)c2ccc(-c3ccccc3)cc2)c2cc(OCCCO)ccc2N1C(=O)c1ccccc1 , z-score read as -0.967

Noted for CC[C@@H](O[Si](C#C[Si](C(C)C)(C(C)C)C(C)C)(C(C)C)C(C)C)c1cn(Cc2cccc(Cl)c2)nn1 : its z-score reads 0.961

====

assay: PSAC antagonists in infected red cells, primary screen, cell-based, P. falciparum Indochina, OD700, 18 h (AID 1157); settings: P. falciparum Indochina infected erythrocytes, osmotic lysis OD700, 18 h; higher = more signal, called active from +8 up or from −8 down
Active and inactive are the calls of the source.
Readout: z-score

// known answers, use as guide
{"columns": ["Molecule", "z-score"],
 "data": [
  ["COCCOC(=O)N1C(=O)[C@@]2(c3cc(C#CC4=CCCCC4)ccc31)[C@H](c1ccc(O)cc1)N1[C@H](c3ccccc3)[C@H](c3ccccc3)OC(=O)[C@H]1[C@@H]2C(=O)N1CCc2cc(OC)c(OC)cc2C1", "0.0991 (inactive)"],
  ["CCCCN1CC=CC23O[C@@H]4C=CCCOC(=O)C4[C@H]2C(=O)N(CCO)[C@@H]3C1=O (some centres not stated)", "0.211 (inactive)"],
  ["COC(=O)[C@@]1(Cc2ccc(OC)cc2)[C@@H]2[C@@H](CC(=O)[C@H]2CC(=O)C(=O)N(C)C)CN1C(=O)c1ccccc1", "1.45 (inactive)"],
  ["C=CC[C@H](O)c1ccc(O)c2ccccc12", "0.45 (inactive)"],
  ["COc1ccc([Si](C)(C)[C@H]2[C@H](CC(=O)N3CCC[C@H]3CO)O[C@@]3(C(=O)N(C)c4ccccc43)[C@@H]2C)cc1", "0.423 (inactive)"],
  ["O=C1C2C=CC(C(O)C3CCCCC3)N(Nc3ccccc3F)C2C(=O)N1c1ccccc1 (configuration not stated)", "-0.743 (inactive)"]
]}

Next molecule, z-score to be filled in.
For reference, reported z-score for CC(C)(C)OC(=O)CC[C@@]1(C(N)=O)N=C(c2ccc(OCCCO)cc2)O[C@@H]1c1ccccc1CN=[N+]=[N-] stands at 0.739 (inactive)

====

target: Torsin-1A-interacting protein 1 (Homo sapiens) (UniProt Q5JTV8); assay: LAP1 binders from COS7 cell lysate, primary screen, small-molecule microarray, 635/667 nm fluorescence (AID 1116); conditions: COS7-hLAP1 lysate binding, 635 nm fluorescence, higher = more signal
Sequence (Q5JTV8 whole entry, looked up): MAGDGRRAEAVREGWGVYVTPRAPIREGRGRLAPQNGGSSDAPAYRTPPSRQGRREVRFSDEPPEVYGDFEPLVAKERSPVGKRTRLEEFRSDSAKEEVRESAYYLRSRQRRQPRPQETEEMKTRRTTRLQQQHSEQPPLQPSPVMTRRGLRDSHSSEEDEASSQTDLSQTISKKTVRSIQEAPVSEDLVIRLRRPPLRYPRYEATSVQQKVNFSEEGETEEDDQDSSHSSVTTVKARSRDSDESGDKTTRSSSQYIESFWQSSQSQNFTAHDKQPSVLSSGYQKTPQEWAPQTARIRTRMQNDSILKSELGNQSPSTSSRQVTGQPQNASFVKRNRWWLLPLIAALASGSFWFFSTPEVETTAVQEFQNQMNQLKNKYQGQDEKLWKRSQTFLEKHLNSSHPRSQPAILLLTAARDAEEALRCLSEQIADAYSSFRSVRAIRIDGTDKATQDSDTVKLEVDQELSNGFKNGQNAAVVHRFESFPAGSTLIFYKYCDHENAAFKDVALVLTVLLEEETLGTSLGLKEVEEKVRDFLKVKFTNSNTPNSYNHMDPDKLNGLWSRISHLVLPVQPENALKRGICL
composite z-score reference
Please give the numeric answer without any surrounding text.

Consider the following illustrative entries.
{"columns": ["Compound", "composite z-score"],
 "data": [
  ["COc1ccc(CCNC(=O)[C@@]2(C)c3ccccc3C(=O)N(Cc3ccc(OC(F)(F)F)cc3)[C@H]2c2ccc(CO)cc2)cc1", 0.986],
  ["[N-]=[N+]=NCc1ccccc1[C@H]1OC(c2ccc(OCCCO)cc2)=N[C@@]1(CCS(=O)(=O)c1ccccc1)C(=O)O", 0.703],
  ["Cc1ccc(S[C@]2(C(=O)NCc3ccccc3)CC(=O)N(Cc3ccccc3C(F)(F)F)[C@@H]2c2ccc(CO)cc2I)cc1", 0.662],
  ["O=C1O[C@H](c2ccccc2)[C@H](c2ccccc2)N2[C@H]1[C@@H](C(=O)N1CCN(c3ncccn3)CC1)[C@]1(C(=O)Nc3ccc(C#CC4(O)CCCCCC4)cc31)[C@H]2c1ccc(O)cc1", 0.679],
  ["CCCCCN1CC=CC23O[C@@H]4/C=C\\CCCOC(=O)C4[C@H]2C(=O)N(CCCCCO)[C@@H]3C1=O (some centres not stated)", -1.28],
  ["COCCOC(=O)N1C(=O)[C@@]2(c3cc(C#CCNC(N)=O)ccc31)[C@H](C(=O)Nc1nc3ccccc3s1)[C@H]1C(=O)O[C@H](c3ccccc3)[C@H](c3ccccc3)N1[C@@H]2c1ccc(O)cc1", 0.618]
]}

Let's switch to this compound now.
Sample C=C[C@H](OC)[C@@H](O)c1ccc(OC)c(O)c1 ; composite z-score observed: -0.435

====

experiment: small-molecule binders of probe aLefty1, primary screen, biochemical, small-molecule microarray, 635/667 nm fluorescence (AID 1153); conditions: higher = more signal;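 note: score merges spot fluorescence with signal-to-noise ratio from the scanned slide images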
compounds and their reported composite z-score

Solved cases (3 shown):
{"columns": ["Input Smiles", "composite z-score"],
 "data": [
  ["CO[C@H]1O[C@H](CO)[C@@H](OC(=O)Nc2ccccc2)[C@@H]2OC(=O)[C@@H](Cc3ccccc3)C/C=C/C[C@H](Cc3ccccc3)C(=O)O[C@@H]12", -0.093],
  ["C[C@]1(C(=O)NC2CC2)c2ccccc2C(=O)N(Cc2cc(F)cc(C(F)(F)F)c2)[C@H]1c1ccc(CO)cc1", -0.351],
  ["CC(C)Cc1ccc(CN2CC[C@@H](NC(=O)c3ccccc3)C2)cc1", -0.147]
]}

Turning now to a further compound:
Note to self: composite z-score recorded for CCCN1C(=O)[C@@]2(c3ccc([N+](=O)[O-])cc3)CC(=O)N(C3CCCCC3)[C@@H]2c2ccc(CO)cc21 was -0.5

====

assay: small-molecule binders of probe aNOTCH2, primary screen, biochemical, small-molecule microarray, 635/667 nm fluorescence (AID 1121); conditions: higher = more signal;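 note: score merges feature fluorescence read at 667 nm with its signal to noise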
Think of -0.07 as a floor: if composite z-score stands on it or above, it is 1 (yes); beneath it, 0 (no).

{"columns": ["Input Smiles", "Classification"],
 "data": [
  ["C=CC[C@]1(C(=O)NCCN2CCOCC2)N=C(c2ccc(OCCCO)cc2)O[C@H]1c1ccccc1", "1 (yes)"],
  ["CC(C)C[C@@H]1NC(=O)[C@H]2C[C@@H](C(=O)O)[C@@H](c3cccc(OCCO)c3)N2C1=O", "0 (no)"],
  ["COC(=O)[C@@]1(Cc2ccc(OC)cc2)[C@@H]2[C@@H](CC(=O)[C@H]2CC(=O)C(=O)N(C)C)CN1C(=O)c1ccccc1", "1 (yes)"],
  ["COC(=O)[C@]1(Cc2ccccc2N=[N+]=[N-])N=C(c2ccc(OCCCO)cc2)O[C@@H]1c1ccccc1CN=[N+]=[N-]", "1 (yes)"],
  ["O=C1O[C@H](c2ccccc2)[C@H](c2ccccc2)N2[C@H]1[C@@H](C(=O)O)[C@]1(C(=O)Nc3ccccc31)[C@H]2c1ccc(OCCO)cc1", "1 (yes)"]
]}

Consider now this further molecule.
Ask: I'd appreciate it if you could say whether C=C(CCCC)/C(=C/C[C@@H](OC(C)=O)c1cccc(OCCO)c1)c1cc(C(=O)OC)ccc1OC has composite z-score at least equal to -0.07.
Result: 0 (no)

====

experiment: COS7 lysate on small-molecule microarray, probe aHis, 635 nm (AID 1123); details: COS7 cell lysate, fluorescence, higher = more signal;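 note: z-score combines 667nm fluorescence intensity with signal-to-noise per printed compound spot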
Label Met when composite z-score is at or above 0.6; anything below gets Not met.

{"columns": ["Molecule", "Classification"],
 "data": [
  ["COC(=O)[C@@]1(Cc2ccc(F)cc2)[C@H]2c3cc(C(=O)N(C)C)n(CCF)c3C[C@H]2CN1C(=O)c1ccccc1", "Met"],
  ["CC(C)(C)OC(=O)CC[C@]1(C(N)=O)N=C(c2ccc(OCCCO)cc2)O[C@H]1c1ccccc1N=[N+]=[N-]", "Met"]
]}

Ask: Is composite z-score at least 0.6? Consider COc1cccc(C)c1NC(=O)O[C@H]1[C@H](OC(=O)Nc2ccc3c(c2)OCO3)[C@H](OC(=O)Nc2ccc3c(c2)OCO3)[C@@H](OC)O[C@@H]1CO
Result: Met

Ask: Threshold query (composite z-score >= 0.6) on CCOC(=O)C1=CC[C@@H](c2ccccc2)N(S(=O)(=O)c2ccc(C)cc2)[C@@H]1C#N
Result: Met

Ask: Hi, just wondering whether O=C1c2ccccc2[C@@]2(Cc3ccccc3N(CC(F)(F)F)C2=O)[C@H](c2ccc(CO)cc2)N1Cc1ccccc1 shows composite z-score of 0.6 or higher.
Result: Not met

Ask: Kindly determine if composite z-score recorded for C=C(COC)/C(=C/C[C@@H](OC(=O)c1ccncc1)c1ccccc1OCCO)c1cnc2ccccc2c1 is above or exactly 0.6.
Result: Not met

Ask: Determine whether measured composite z-score meets or exceeds 0.6 for CC(C)(C)OC(=O)N1[C@@H](C=C(Br)Br)COC1(C)C
Result: Not met

Ask: Is composite z-score at least 0.6? Consider C=CCNC(=O)[C@H]1[C@@H]2C(=O)O[C@@H](c3ccccc3)[C@@H](c3ccccc3)N2[C@@H](c2ccc(OCCO)cc2)[C@]12C(=O)Nc1ccc(C#Cc3ccc(OC)cc3)cc12
Result: Met
